Hey, just so you know, these numbers are from ChEMBL document CHEMBL1142497.

- EXPERIMENTAL TARGET: Thioredoxin reductase 2, mitochondrial (Rattus norvegicus)
- Sequence (Q9Z0J5 whole entry): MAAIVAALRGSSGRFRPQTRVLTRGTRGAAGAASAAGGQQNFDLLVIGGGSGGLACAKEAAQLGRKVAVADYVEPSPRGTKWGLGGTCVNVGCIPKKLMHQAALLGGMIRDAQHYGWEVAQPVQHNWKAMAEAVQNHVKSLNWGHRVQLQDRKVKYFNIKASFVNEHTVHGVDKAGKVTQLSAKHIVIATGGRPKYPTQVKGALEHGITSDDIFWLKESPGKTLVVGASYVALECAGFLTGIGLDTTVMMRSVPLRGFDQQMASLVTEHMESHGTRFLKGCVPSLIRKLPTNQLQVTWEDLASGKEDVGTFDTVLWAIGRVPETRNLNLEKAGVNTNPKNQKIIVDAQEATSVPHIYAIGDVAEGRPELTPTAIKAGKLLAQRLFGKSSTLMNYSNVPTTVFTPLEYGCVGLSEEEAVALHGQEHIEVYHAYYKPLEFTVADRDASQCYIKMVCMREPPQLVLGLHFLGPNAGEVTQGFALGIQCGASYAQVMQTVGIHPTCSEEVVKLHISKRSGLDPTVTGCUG
MEASUREMENT NAME: IC50

Lookup result for O=C(O)C1(C(=O)O)CCC1 ; measured IC50: > 200 µM
